Target: Disintegrin and metalloproteinase domain-containing protein 17 (Mus musculus)
Sequence (Q9Z0F8 whole entry, the tested form may be a part): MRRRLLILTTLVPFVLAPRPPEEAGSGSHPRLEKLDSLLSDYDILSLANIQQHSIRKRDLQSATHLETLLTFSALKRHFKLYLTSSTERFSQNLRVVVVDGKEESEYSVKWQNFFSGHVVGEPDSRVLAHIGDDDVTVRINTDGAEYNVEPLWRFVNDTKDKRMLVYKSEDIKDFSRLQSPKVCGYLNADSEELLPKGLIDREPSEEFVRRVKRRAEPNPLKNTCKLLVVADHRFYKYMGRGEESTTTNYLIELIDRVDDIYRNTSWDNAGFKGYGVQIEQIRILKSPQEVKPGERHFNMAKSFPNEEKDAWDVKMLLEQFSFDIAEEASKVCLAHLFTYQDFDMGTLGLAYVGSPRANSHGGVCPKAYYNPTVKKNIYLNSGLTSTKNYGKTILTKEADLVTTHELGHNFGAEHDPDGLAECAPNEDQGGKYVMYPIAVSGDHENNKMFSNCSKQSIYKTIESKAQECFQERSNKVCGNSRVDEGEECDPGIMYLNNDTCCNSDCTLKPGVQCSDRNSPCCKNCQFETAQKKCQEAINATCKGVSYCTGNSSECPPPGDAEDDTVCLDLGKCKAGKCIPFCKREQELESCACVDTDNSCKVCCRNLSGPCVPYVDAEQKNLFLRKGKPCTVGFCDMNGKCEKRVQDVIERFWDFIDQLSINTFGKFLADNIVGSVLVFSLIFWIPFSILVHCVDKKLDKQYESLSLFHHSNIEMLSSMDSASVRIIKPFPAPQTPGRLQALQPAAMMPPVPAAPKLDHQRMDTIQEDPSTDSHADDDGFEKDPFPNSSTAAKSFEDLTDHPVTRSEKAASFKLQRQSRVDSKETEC
Experiment: Inhibition of TACE in mouse RAW264.7 cells assessed as inhibition of LPS-stimulated TNFalpha production pretreated for 1 hr followed by LPS stimulation for 4 hrs by ELISA
Type: cell-based
Conditions: read-out: IC50
IC50 vs 90 nM: less than gives yes; not less than gives no.

Examples with answers:
INSERT INTO results (compound, assay_system, label_class) VALUES
  ('Cc1cc(COc2ccc(S(=O)(=O)N(C)[C@@H]3COC[C@@H]3C(=O)NO)cc2)c2ccccc2n1 (relative stereo)', 'Disintegrin and metalloproteinase domain-containing protein 17 (Mus musculus)', 'no'),
  ('Cc1cc(COc2ccc(S(=O)(=O)N[C@@H]3CCN(C=O)C[C@]3(C)C(=O)NO)cc2)c2ccccc2n1', 'Disintegrin and metalloproteinase domain-containing protein 17 (Mus musculus)', 'no'),
  ('Cc1cc(COc2ccc(S(=O)(=O)N[C@@H]3CCN(C(=O)OC(C)(C)C)C[C@@H]3C(=O)NO)cc2)c2ccccc2n1', 'Disintegrin and metalloproteinase domain-containing protein 17 (Mus musculus)', 'no');

Decide: IC50 of `Cc1cc(COc2ccc(S(=O)(=O)N(C)[C@@H]3[C@@H]4CC[C@@H](C4)[C@@H]3C(=O)NO)cc2)c2ccccc2n1` strictly below 90 nM? yes

I'd appreciate it if you could check whether Cc1cc(COc2ccc(S(=O)(=O)N[C@]3(C)CCCC[C@@H]3C(=O)NO)cc2)c2ccccc2n1 (racemic) has IC50 smaller than 90 nM. yes

Strictly below 90 nM in IC50? Cc1cc(COc2ccc(S(=O)(=O)N(C)C3C(C(=O)NO)[C@@H]4CC[C@H]3O4)cc2)c2ccccc2n1 (relative stereo; form 1) no

Quick check: does Cc1cc(COc2ccc(S(=O)(=O)N(C)[C@@H]3CCC[C@@H]3C(=O)NO)cc2)c2ccccc2n1 (relative stereo) have IC50 under 90 nM? no

Decide: IC50 of Cc1cc(COc2ccc(S(=O)(=O)N(C)[C@H]3CCCC[C@@H]3C(=O)NO)cc2)c2ccccc2n1 (relative stereo) strictly below 90 nM? no

Hi there! Is IC50 for `Cc1cc(COc2ccc(S(=O)(=O)N[C@@H]3COC[C@@H]3C(=O)NO)cc2)c2ccccc2n1` below 90 nM, do you know? yes

In the record for `Cc1cc(COc2ccc(S(=O)(=O)N(C)[C@@H]3CCC[C@]3(CO)C(=O)NO)cc2)c2ccccc2n1` , is IC50 less than 90 nM? no

Strictly below 90 nM in IC50? `CC(=O)N1CC[C@@H](NS(=O)(=O)c2ccc(OCc3cc(C)nc4ccccc34)cc2)[C@@](C)(C(=O)NO)C1` no

A record lists `C#CCN1CC[C@@H](NS(=O)(=O)c2ccc(OCc3cc(C)nc4ccccc34)cc2)[C@@](C)(C(=O)NO)C1` . Is its IC50 below 90 nM? no

hey, is IC50 for Cc1cc(COc2ccc(S(=O)(=O)N[C@@H]3CN(C=O)C[C@@H]3C(=O)NO)cc2)c2ccccc2n1 (relative stereo) lower than 90 nM or not? yes

Is the reported IC50 for Cc1cc(COc2ccc(S(=O)(=O)N[C@@H]3CCCC[C@@H]3C(=O)NO)cc2)c2ccccc2n1 (relative stereo) strictly below 90 nM? yes

IC50 strictly < 90 nM for this compound? `CNC(=O)N1CC[C@@H](NS(=O)(=O)c2ccc(OCc3cc(C)nc4ccccc34)cc2)[C@@](C)(C(=O)NO)C1` no

Please check: IC50 for `Cc1cc(COc2ccc(S(=O)(=O)N(C)[C@H]3[C@@H](C(=O)NO)[C@@H]4CC[C@H]3O4)cc2)c2ccccc2n1` , strictly under 90 nM or not? yes

Lab note: confirm whether the reported IC50 for this compound is below 90 nM, equality not counting. compound: `Cc1cc(COc2ccc(S(=O)(=O)N[C@@H]3CCNC[C@]3(O)C(=O)NO)cc2)c2ccccc2n1` no

Confirm or reject: IC50 of `Cc1cc(COc2ccc(S(=O)(=O)N[C@@H]3CCN(C=O)C[C@@H]3C(=O)NO)cc2)c2ccccc2n1` lies strictly below 90 nM yes

Is IC50 of Cc1cc(COc2ccc(S(=O)(=O)N[C@H]3CCCC[C@@H]3C(=O)NO)cc2)c2ccccc2n1 (relative stereo) strictly below 90 nM? yes

Quick check: IC50 of Cc1cc(COc2ccc(S(=O)(=O)N[C@@H]3CN(C=O)CCC3C(=O)NO)cc2)c2ccccc2n1 (some centres not stated) under 90 nM? yes
